# Test system: HL-60(TB) leukemia
# experimental-details: NCI tumour cell line growth inhibition, 48 h
This listing pairs compounds with measured TGI.
endpoint-label: TGI

1. c1cc2c(cnc3cscc32)s1
> 100 µM
2. OC1CN=C2c3ccccc3C(O)(c3ccc(Cl)cc3)N2C1 (centres undefined)
> 100 µM
3. COC(=O)c1ccc(OCc2ccc3oc(=O)c(-c4ccccc4)nc3c2)cc1
> 100 µM
4. COc1cc(C2c3cc4c(cc3OC(N3CCOCC3)C2C)OCO4)cc(OC)c1O (centres undefined)
> 26 µM

* * *

# Test system: OVCAR-3 ovarian
# experimental-details: NCI tumour cell line growth inhibition, 48 h
endpoint-label: TGI

1. CC(C)n1c(=O)c2nn3c(=O)n(C(C)C)c(=O)c3nn2c1=O
> 100 µM
2. COc1ccc(/C=[N+](\[O-])[C@H](COCc2ccccc2)c2ccccc2)cc1
> 100 µM
3. COC1C(=O)CCC2(CO2)C1(O)C1(C)OC1CCC(C)C (configuration not stated)
> 100 µM
4. CN(C)Cc1cc(C(=O)O)cc(CN(C)C)c1O
> 100 µM
5. O=C(O)c1[nH]c(C(=O)O)c(CC(F)(F)C(F)(F)C(F)(F)F)c1CC(F)(F)C(F)(F)C(F)(F)F
> 100 µM
6. NC(N)=NNC(=O)C(=O)O
> 100 µM
7. Cc1ccc2[nH]c(=O)c(-c3cnc(=O)[nH]n3)c(O)c2c1
> 100 µM
8. C=C1C(O)C2C(=C(CC(C)C)C13CC3)C(=O)C(C)(C)C2OC (configuration not stated)
> 100 µM
9. Nc1cc(CO)cc(Nc2c3ccccc3nc3occc23)c1
> 100 µM
10. COc1nc2c(c(=O)n1C)N[C@@H]1[C@@H](O)[C@H](O)CO[C@@H]1N2
> 100 µM
11. c1cc2c(cnc3cscc32)s1
> 100 µM
12. COC(=O)C12C3C4C1C1C2C3C41I (configuration not stated)
> 100 µM
13. CN(C)CCNC(=O)c1cccc(CO)c1[N+](=O)[O-]
> 100 µM
14. CO[P@]1(=O)O[C@@H](c2ccccc2)[C@H](O)[C@]1(O)c1ccccc1
> 100 µM
15. COC(=O)/C(=N/NC(C)(C)C)C(C(=O)C=C(C)C)C(=O)C(=O)Nc1ccc(Cl)cc1C (configuration not stated)
> 100 µM
16. OCCCNCc1ccccn1
> 100 µM
17. O=C1CC(c2cccc(Cl)c2)n2cccc21 (configuration not stated)
> 100 µM
18. Nc1ccc2c(c1)[O][Sn]([c]1ccccc1)([c]1ccccc1)[O]C2=O
15.9 µM
19. ClCCn1cnc2c(SCc3ccccc3)ncnc21
> 100 µM
20. CC(C)(C)N=CN1CCC(C(c2ccccc2)c2ccccc2)CC1
> 100 µM
21. CC(=O)Oc1ccc2c(c1)CC[C@@H]1C2[C@@H](O[N+](=O)[O-])C[C@@]2(C)C1CC[C@@H]2O (some centres not stated)
> 86.9 µM
22. OC1CN=C2c3ccccc3C(O)(c3ccc(Cl)cc3)N2C1 (configuration not stated)
> 100 µM
23. Cc1nn(-c2ccccc2)c(C)c1/C=N/NC(=O)c1sc(=S)n(-c2ccccc2)c1N
> 100 µM
24. C=C1C(=O)O[C@H]2[C@H]1CC/C(COC(=O)c1ccc(C(=O)O)s1)=C\CC[C@@]1(C)O[C@@H]21
2.98 µM
25. CN(C)c1ccc(/C=C2\N=C(c3ccccc3)N(c3nc4c(Cl)cc(Cl)cc4s3)C2=O)cc1
> 100 µM
26. CN(C)CCNC(=O)c1cc([N+](=O)[O-])cc2ccc(-c3ccccc3)nc12
54.3 µM
27. CN(C)CCNc1cccc2sc3ccc(O)cc3c(=O)c12
11.5 µM
28. CC1(C)C(=O)/C(=C\c2ccco2)C[C@]2(C)[C@H]3CC=C4[C@@H]5C[C@](C)(C(=O)O)CC[C@]5(C)CC[C@@]4(C)[C@]3(C)CC[C@@H]12
26.1 µM
29. O=C(N=Nc1c(O)[nH]c2ccccc12)c1ccccc1O
> 100 µM
30. C=C(CNCCO)[C@@H]1CC[C@]2(CO)CC[C@]3(C)[C@H](CC[C@@H]4[C@@]5(C)CCC(NCCc6ccc(O)cc6)C(C)(C)[C@@H]5CC[C@]43C)[C@@H]12 (some centres not stated)
3.73 µM
31. c1ccc2c(c1)SC1Sc3ccccc3[S+]21 (configuration not stated)
46 µM
32. CC[C@@]1(OC(=O)CCC(=O)O)C(=O)OCc2c1cc1n(c2=O)Cc2cc3ccccc3nc2-1
3.88 µM
